Data credit: patent US8790719B2

Target Desc: monoacylglyceride lipase (MAGL) (Homo sapiens)
Sequence (Q99685 whole entry, species assumed): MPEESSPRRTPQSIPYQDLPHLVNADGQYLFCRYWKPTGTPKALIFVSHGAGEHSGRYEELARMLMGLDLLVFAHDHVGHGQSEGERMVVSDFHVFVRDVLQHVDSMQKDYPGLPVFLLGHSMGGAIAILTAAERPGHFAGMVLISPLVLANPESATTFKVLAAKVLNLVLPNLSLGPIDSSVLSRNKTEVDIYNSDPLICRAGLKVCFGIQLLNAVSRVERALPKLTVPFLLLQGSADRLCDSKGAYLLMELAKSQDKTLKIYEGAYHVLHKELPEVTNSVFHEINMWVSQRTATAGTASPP
Protocol Notes: Inhibition of monoacylglyceride lipase (MAGL)
Format: biochemical
Reported IC50 values for the following compounds.

| Compound | Qualifier | IC50 / µM |
| --- | --- | --- |
| CCCCCc1cc(O)c2c(c1)OC(C)(C)c1ccc(C)cc1-2 | > | 50 |
| CCCCCc1cc2c(c(O)c1C(=O)O)[C@@H]1C=C(C)CC[C@H]1C(C)(C)O2 [THCA, Tetrahydrocannabinolic acid] | = | 46 |

* * *

Target Desc: monoacylglyceride lipase (MAGL) (Homo sapiens)
Protocol Notes: Inhibition of monoacylglyceride lipase (MAGL)
Format: biochemical
Measurement Parameters: Table 5.1; read-out: MAG IC50
pIC50: −log10 of the molar value.
In this section we review reported pIC50 values for a set of molecules.

| Molecule | pIC50 |
| --- | --- |
| C=C(C)[C@@H]1CCC(C)=C[C@H]1c1c(O)cc(CCCCC)c(C(=O)O)c1O [CBDA, Cannabidiolic acid] | < 4.30 |
| CCCc1cc(O)c2c(c1)OC(C)(CCC=C(C)C)C=C2 (stereo not drawn) [CBCV] | < 4.30 |
| CCCCCc1cc(O)c(C/C=C(\C)CCC=C(C)C)c(O)c1C(=O)O [CBGA] | < 4.30 |

* * *

Tested on: MDA-MB-231 breast cancer cell line
Protocol Notes: Cell viability of breast cancer cells (Alamar blue assay)
Type: cell-based
Measurement Parameters: 72 hours
Experimental: Cells were seeded in presence of FBS in 6 wells multiwell and treated with increased concentrations of compounds for 72 hours. Cell viability was assessed by Alamar blue staining. Isolated phytocannabinoids were tested on the MDA-MB-231 breast cancer cell line in order to determine whether phytocannabinoids were effective in other types of cancer other than prostate cancer. The different isolated phytocannabinoids chosen for this experiment were: CBGA, CBDA, CBDV, CBD, THCV and THC.
pIC50: −log10 of the molar value.
Quantity Name: pIC50

| Line Notation | Target Desc | Quantity Name | Recorded Result |
| --- | --- | --- | --- |
| CCCCCc1cc(O)c(C/C=C(\C)CCC=C(C)C)c(O)c1C(=O)O | MDA-MB-231 breast cancer cell line | pIC50 | 5.66 |
